The measured values listed here are drawn from patent WO2016071355A1.

Biological target: T1, soluble extracellular region of human CD38 fused to a 6-His-tag (human, UniProt P28907 43-300)
T1 construct: also called human CD38 extracellular domain with a poly-histidine tag; human CD38 antigen
Assay: SPR, antibody captured on protein G, CD38-His injected
ENDPOINT: Kd

Inquiry: For the binder shown here, humanized 9G7 best-framework antibody (antibody, human IgG1, kappa, V domains shown, Human IgG1) VH: EVQLVESGGGLVQPGGSLRLSCAFSGLSLSTSGKGVGWIRQAPGKGLEWLAHIWWDDDKRYNPALKSRLTISKDTSKNTVYLQMNSLRAEDTAVYYCARIELGRSYVMDYWGQGTLVTVSS VL: DIQMTQSPSSLSASVGDRVTITCRASQDVITSVAWFQQKPGKAPKLLIYSASYRYTGVPSRFSGSGSGTDFTLTISSLQPEDFATYYCQQHYTIPLTFGQGTKVEIKR , give the reported Kd.
Reply text: 0.4 nM
